System: morningglory
Assay remarks: Test B pre-/postemergence herbicide test
Assay type: in vivo, Ipomoea coccinea
Assay setup: postemergence, 500 g ai/ha; visual rating, scale 0 (no effect) to 100 (complete control)
Kindly return true if reported Morningglory plant response rating is no lower than 30; return false if it is lower.

- Compound string: "CCc1nn(C(C)(C)C)cc1C(=O)Nc1ccc(F)c(C(=O)N(C)C)c1"
  Label value: "false"
- Compound string: "CCCc1nn(C(C)(C)C)cc1C(=O)Nc1cccc(C(=O)N(CC)CC)c1"
  Label value: "true"
- Compound string: "C=CCNC(=O)c1cccc(NC(=O)c2sc(C(C)(C)C)nc2C)c1"
  Label value: "true"
- Compound string: "CCn1nc(C(C)(C)C)cc1C(=O)Nc1cc(C#N)ccc1F"
  Label value: "false"
- Compound string: "CCN(CC)C(=O)c1cccc(NC(=O)c2cc(C(C)(C)C)nn2CC)n1"
  Label value: "false"
- Compound string: "CCc1nc(C(C)(C)C)sc1C(=O)Nc1cc(C(=O)N(C)CC)ccc1F"
  Label value: "true"
